- tested.system: T1, mouse big-ET-1 (SEQ ID NO:437) (Mus musculus, UniProt P22387)
- T1 sequence (P22387 53-91 limits assumed): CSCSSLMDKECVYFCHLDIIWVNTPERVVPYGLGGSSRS
- assay.procedure: Surface plasmon resonance (Biacore) binding, mAb capture format, 37° C.
- experimental.conditions: analyte mouse big-ET-1, mAb capture
readout.name: ka (M/s)

| molecule | u | measured.result |
| --- | --- | --- |
| H4H6323P: anti-big-ET-1 antibody, human IgG4 Fc; HCVR/LCVR SEQ ID NO: 146/154 (antibody, V domains shown, human IgG4 Fc) VH: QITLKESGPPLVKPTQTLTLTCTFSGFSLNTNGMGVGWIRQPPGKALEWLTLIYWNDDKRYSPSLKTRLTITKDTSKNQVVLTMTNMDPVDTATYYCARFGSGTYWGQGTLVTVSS VL: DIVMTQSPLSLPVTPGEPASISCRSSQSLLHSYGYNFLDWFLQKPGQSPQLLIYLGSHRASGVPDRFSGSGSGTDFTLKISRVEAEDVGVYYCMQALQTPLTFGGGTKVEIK | M/s | 580000 |
| H4H6345P: anti-big-ET-1 antibody, human IgG4 Fc; HCVR/LCVR SEQ ID NO: 354/362 (antibody, V domains shown, human IgG4 Fc) VH: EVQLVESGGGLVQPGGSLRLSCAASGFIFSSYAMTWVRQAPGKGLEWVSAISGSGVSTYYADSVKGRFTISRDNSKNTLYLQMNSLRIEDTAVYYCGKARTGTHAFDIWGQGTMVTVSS VL: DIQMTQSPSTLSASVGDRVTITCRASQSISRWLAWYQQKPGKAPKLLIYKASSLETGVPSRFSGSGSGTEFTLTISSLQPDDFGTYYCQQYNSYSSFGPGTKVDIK | M/s | 1.5e+06 |
| H4H6330P: anti-big-ET-1 antibody, human IgG4 Fc; HCVR/LCVR SEQ ID NO: 210/218 (antibody, V domains shown, human IgG4 Fc) VH: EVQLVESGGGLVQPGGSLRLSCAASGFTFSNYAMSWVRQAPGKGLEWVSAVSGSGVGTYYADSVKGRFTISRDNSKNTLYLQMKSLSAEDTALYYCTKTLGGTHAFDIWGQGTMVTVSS VL: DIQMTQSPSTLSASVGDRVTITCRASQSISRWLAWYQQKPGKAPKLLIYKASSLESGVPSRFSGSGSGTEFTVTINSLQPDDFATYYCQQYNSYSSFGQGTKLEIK | M/s | 1.5e+06 |
| H4H6329P: anti-big-ET-1 antibody, human IgG4 Fc; HCVR/LCVR SEQ ID NO: 194/202 (antibody, V domains shown, human IgG4 Fc) VH: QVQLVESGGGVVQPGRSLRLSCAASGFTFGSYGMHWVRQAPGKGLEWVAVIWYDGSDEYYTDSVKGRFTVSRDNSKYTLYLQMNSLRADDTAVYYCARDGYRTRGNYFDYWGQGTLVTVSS VL: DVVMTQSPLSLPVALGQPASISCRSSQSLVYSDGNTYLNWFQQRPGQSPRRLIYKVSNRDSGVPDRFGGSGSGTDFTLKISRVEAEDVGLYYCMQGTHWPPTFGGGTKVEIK | M/s | 11600 |
| H4H6353P: anti-big-ET-1 antibody, human IgG4 Fc; HCVR/LCVR SEQ ID NO: 386/394 (antibody, V domains shown, human IgG4 Fc) VH: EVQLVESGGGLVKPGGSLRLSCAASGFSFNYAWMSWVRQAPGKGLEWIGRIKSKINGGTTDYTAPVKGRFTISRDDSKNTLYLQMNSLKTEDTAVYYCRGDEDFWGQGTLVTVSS VL: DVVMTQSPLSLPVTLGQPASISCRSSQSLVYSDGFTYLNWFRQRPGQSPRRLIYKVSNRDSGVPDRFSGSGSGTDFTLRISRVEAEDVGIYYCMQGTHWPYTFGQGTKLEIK | M/s | 2900 |
